Entries and their measured EC50 follow.
- experiment: cytotoxicity toward NIH3T3 fibroblasts, dose response, counter-screen, cell-based, ATP luminescence, mouse fibroblasts (AID 2010);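 note: cells exposed to compound for about 90 hours before reading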
- Type: functional
Active and inactive are the calls of the source. Cut-off read from the data, not from the text of the source: actives have a measured EC50 and inactives only a lower limit.

compound	EC50
C/C(=N\NC(=O)c1ccc(Cl)c(Cl)c1)c1ccccn1	0.656 µM (active)
O=C(c1cc([N+](=O)[O-])cc([N+](=O)[O-])c1)N(Cc1nnc(-c2ccccc2Cl)o1)C1CC1	> 60 µM (not active)
COC(=O)c1c(NC(=O)CN2C(=O)NC3(CCC(C(C)(C)C)CC3)C2=O)sc2c1CCCCC2 (centres undefined)	> 60 µM (not active)
CCCCC(=O)NC(c1ccc(Cl)cc1)c1ccc2cccnc2c1O (centres undefined)	0.617 µM (active)
CCc1ccc(Nc2c([N+](=O)[O-])nn(-c3ccc4c(c3)OCCO4)[n+]2[O-])cc1	> 60 µM (not active)
O=[N+]([O-])c1nn(-c2ccc3c(c2)OCCO3)[n+]([O-])c1Nc1ccc(Cl)cc1	> 60 µM (not active)
COc1cc(CNCCCN2CCOCC2)cc(Br)c1OCc1ccc(Cl)cc1	24 µM (active)
COc1cccc(-c2cc(C(=O)Nc3ccc(N(C)C(C)=O)cc3)c3cc(Br)ccc3n2)c1	> 60 µM (not active)
CC1CCCCN1S(=O)(=O)c1ccc(S(=O)(=O)N(Cc2ccccc2)Cc2ccco2)cc1 (centres undefined)	> 60 µM (not active)
